Data origin: paper PMC12332157

assay: Biodistribution in BALB/c nu/nu mice bearing PC-3 xenografts; type: in vivo; conditions: female, BALB/c nu/nu, mouse, lungs, iv, total radioactivity; Blockade (co-injection of NOTA-PEG2-RM26), 2 h; read-out: Radionuclide concentration, Lungs
Starred links: 1 amine or outer side, 2 acyl side, 3 side chain; linkers in the order of their positions; H or OH if unused. Non-standard residues stand in square brackets, D forms with d. Residues, ends and D or L forms follow the SMILES beside them. *: point of attachment. NOTA = O=C(O)CN1CCN(CC(=O)O)CCN(CC(=O)*)CC1; Sta = CC(C)C[C@H](N)[C@@H](O)CC(=O)O; X2 = O=C(COc1cccc(CN[*:1])c1)[*:2]; X1 = O=C(Cc1ccccc1CCN[*:1])[*:2]; X3 = O=C(COc1ccccc1CN[*:1])[*:2]
Measured Endpoint: tissue uptake at 2 h (%ID/g)
Answers are plain numbers, in %ID/g.

Please review the entries below; each comes with its answer.
{"columns": ["Molecule", "tissue uptake at 2 h (%ID/g)"],
 "data": [
  ["CC(=O)N[C@@H](CCCCNC(=O)CN1CCN(CC(=O)O)CCN(CC(=O)O)CC1)C(=O)NCc1ccccc1OCC(=O)N[C@H](Cc1ccccc1)C(=O)N[C@@H](CCC(N)=O)C(=O)N[C@@H](Cc1c[nH]c2ccccc12)C(=O)N[C@@H](C)C(=O)N[C@H](C(=O)NCC(=O)N[C@@H](Cc1c[nH]cn1)C(=O)N[C@@H](CC(C)C)[C@@H](O)CC(=O)N[C@@H](CC(C)C)C(N)=O)C(C)C [[^68Ga]Ga-NOTA-oMA-RM26, metal not drawn] (Ac-K(NOTA)[X3][dF]QWAVGH[Sta]L-NH2)", 3.5],
  ["CC(=O)N[C@@H](CCCCNC(=O)CN1CCN(CC(=O)O)CCN(CC(=O)O)CC1)C(=O)NCc1cccc(OCC(=O)N[C@H](Cc2ccccc2)C(=O)N[C@@H](CCC(N)=O)C(=O)N[C@@H](Cc2c[nH]c3ccccc23)C(=O)N[C@@H](C)C(=O)N[C@H](C(=O)NCC(=O)N[C@@H](Cc2c[nH]cn2)C(=O)N[C@@H](CC(C)C)[C@@H](O)CC(=O)N[C@@H](CC(C)C)C(N)=O)C(C)C)c1 [[^68Ga]Ga-NOTA-mMA-RM26, metal not drawn] (Ac-K(NOTA)[X2][dF]QWAVGH[Sta]L-NH2)", 3.4]
]}

Next, consider the following molecule.
Input CC(=O)N[C@@H](CCCCNC(=O)CN1CCN(CC(=O)O)CCN(CC(=O)O)CC1)C(=O)NCCc1ccccc1CC(=O)N[C@H](Cc1ccccc1)C(=O)N[C@@H](CCC(N)=O)C(=O)N[C@@H](Cc1c[nH]c2ccccc12)C(=O)N[C@@H](C)C(=O)N[C@H](C(=O)NCC(=O)N[C@@H](Cc1c[nH]cn1)C(=O)N[C@@H](CC(C)C)[C@@H](O)CC(=O)N[C@@H](CC(C)C)C(N)=O)C(C)C [[^68Ga]Ga-NOTA-oET-RM26, metal not drawn] (Ac-K(NOTA)[X1][dF]QWAVGH[Sta]L-NH2) . Output tissue uptake at 2 h: 0.37
